These data points were gathered from patent US20230322924A1.

Give measured MFI at 0.6 nM mAb for each item. Keep answers brief.
Biological target: T1, Human CD33 full length, expressed on HEK293F cells (human, UniProt P20138 18-364)
T1 construct: HEK293F cells transduced with lentivirus containing full length human CD33; also called huCD33
T1 sequence (P20138 18-364 limits assumed): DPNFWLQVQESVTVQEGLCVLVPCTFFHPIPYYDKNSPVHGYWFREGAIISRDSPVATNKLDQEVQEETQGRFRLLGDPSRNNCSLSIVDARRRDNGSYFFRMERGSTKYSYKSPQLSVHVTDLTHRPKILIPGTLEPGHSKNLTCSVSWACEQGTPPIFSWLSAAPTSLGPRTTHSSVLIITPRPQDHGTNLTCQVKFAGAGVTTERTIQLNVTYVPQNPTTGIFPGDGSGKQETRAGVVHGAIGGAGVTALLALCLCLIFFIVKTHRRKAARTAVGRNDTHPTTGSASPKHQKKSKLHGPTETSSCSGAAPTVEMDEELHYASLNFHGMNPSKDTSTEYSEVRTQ
Test: flow cytometry, HEK293F cells expressing human CD33
One number for each entry, in MFI.

>  <binder>
C33B96 (antibody, IgG1, V domains shown, huIgG1 F405L; also called C33F101; C33H99/C33L37) VH: EVQLVESGGGLVQPGGSLRLSCAASGFTFSSYWMTWVRPAPGKGLEWVANIKRDGGEKYYVDSVKGRFTISRDNAANSLYLQMNSLRVEDTAVYYCARPFYDHFDYWGQGTLVTVSS VL: SYVLTQPPSVAVAPGQTARITCGGSNIGKISVHWYQQKAGQAPVLVVHDDRARPSGIPERLSGSNSGTTATLTISRVEVGDEADYYCQVWNSSSVHPVFGGGTKLTVL

>  <MFI at 0.6 nM mAb, MFI>
188000

$$$$

Dear colleague, could you send me MFI at 0.6 nM mAb for each of the items below? Thanks.
1. C33B125 (antibody, IgG1, V domains shown, huIgG1 F405L; also called C33F130; C33H84/C33L66) VH: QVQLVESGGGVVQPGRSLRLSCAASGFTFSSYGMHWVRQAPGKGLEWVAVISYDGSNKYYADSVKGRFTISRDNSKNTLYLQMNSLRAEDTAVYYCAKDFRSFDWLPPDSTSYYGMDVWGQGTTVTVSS VL: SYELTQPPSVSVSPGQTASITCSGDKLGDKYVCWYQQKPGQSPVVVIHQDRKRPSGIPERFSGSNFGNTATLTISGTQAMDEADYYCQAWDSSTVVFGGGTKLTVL
2. C33B55 (antibody, IgG1, V domains shown, huIgG1 F405L; also called C33F60; C33H45/C33L11) VH: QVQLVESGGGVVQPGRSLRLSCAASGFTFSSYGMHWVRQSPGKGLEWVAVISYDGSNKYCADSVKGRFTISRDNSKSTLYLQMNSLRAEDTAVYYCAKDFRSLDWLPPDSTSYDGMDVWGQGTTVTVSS VL: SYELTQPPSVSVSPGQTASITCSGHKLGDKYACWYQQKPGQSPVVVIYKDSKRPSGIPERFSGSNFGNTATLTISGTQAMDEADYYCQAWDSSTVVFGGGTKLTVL

[9200, 7630]
